# target.under.test: Nav 1.7 (Homo sapiens (Human))
# Sequence (Q15858 whole entry): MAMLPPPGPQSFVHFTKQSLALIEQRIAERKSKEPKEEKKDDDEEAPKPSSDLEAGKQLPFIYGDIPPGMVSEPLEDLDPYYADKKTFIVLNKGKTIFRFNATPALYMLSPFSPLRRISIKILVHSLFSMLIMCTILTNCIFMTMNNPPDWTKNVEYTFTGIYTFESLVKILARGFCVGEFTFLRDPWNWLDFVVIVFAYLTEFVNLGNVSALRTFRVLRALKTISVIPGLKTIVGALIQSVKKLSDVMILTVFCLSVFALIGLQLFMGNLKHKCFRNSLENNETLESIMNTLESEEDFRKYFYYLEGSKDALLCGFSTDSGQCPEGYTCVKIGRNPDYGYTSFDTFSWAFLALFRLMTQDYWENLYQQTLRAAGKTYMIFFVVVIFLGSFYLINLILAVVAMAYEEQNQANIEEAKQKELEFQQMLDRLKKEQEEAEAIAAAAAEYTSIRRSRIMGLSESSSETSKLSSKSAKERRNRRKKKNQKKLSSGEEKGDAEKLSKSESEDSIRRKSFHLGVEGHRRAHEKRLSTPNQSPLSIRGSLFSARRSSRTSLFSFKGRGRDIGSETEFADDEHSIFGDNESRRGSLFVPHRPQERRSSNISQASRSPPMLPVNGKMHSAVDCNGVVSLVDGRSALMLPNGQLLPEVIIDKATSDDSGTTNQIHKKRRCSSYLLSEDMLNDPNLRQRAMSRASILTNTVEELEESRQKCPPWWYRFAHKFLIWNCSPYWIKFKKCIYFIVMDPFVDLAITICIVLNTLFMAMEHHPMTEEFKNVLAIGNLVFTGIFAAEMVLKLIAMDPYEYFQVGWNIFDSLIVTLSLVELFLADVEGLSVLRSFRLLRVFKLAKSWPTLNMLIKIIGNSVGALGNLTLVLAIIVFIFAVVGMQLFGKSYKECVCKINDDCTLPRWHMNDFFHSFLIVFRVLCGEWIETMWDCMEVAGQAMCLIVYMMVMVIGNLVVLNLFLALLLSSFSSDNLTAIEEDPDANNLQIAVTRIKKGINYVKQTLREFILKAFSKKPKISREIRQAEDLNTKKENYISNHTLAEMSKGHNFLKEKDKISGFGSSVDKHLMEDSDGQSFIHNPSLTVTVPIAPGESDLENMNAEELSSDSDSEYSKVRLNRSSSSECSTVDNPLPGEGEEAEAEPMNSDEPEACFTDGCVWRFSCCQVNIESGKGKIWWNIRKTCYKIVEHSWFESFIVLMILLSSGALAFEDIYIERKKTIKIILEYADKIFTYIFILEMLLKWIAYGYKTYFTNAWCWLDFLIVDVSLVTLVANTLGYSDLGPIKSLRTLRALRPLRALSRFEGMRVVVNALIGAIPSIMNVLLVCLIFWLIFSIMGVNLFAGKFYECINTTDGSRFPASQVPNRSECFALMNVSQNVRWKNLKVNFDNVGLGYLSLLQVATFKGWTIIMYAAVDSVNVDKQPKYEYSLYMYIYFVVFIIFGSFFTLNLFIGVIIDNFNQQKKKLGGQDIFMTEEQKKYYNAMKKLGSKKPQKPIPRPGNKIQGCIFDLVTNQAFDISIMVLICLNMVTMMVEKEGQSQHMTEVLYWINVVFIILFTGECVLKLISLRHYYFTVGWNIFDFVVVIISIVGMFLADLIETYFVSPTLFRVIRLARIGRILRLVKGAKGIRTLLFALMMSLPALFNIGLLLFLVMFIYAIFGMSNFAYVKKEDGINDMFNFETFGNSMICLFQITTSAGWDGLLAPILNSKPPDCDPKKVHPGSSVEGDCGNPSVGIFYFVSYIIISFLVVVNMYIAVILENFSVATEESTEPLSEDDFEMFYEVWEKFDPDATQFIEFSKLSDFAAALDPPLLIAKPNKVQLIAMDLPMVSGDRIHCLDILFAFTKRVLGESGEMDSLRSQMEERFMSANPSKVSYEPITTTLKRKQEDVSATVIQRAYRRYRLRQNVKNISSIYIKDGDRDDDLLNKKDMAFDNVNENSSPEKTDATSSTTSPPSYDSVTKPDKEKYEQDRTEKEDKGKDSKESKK
# assay.remarks: Nav 1.7 in vitro PX assay, PatchXpress whole cell voltage clamp
# Format: cell-based
# measurement.context: HEK 293 cells stably transfected with human Nav1.7; partially inactivated state (20 to 50% inactivation)
measurement.name: IC50 (nM)

[
  {
    "compound": "O=S(=O)(Nc1nccs1)c1ccc2c(c1)OCCN2c1ccc(C(F)(F)F)cc1-c1ccncc1 [Example 53, 2,2,2-Trifluoroacetate]",
    "measurement.name": "IC50",
    "measurement.units": "nM",
    "numeric.readout": 203
  },
  {
    "compound": "COc1cc(C#N)ccc1N1CCOc2cc(S(=O)(=O)Nc3nccs3)ccc21 [Example 181, 2,2,2-Trifluoroacetate]",
    "measurement.name": "IC50",
    "measurement.units": "nM",
    "numeric.readout": 175
  }
]

a = NC(=O)c1ccccc1N1CCOc2cc(S(=O)(=O)Nc3nccs3)ccc21
b = O=S(=O)(Nc1nccs1)c1ccc2c(c1)OCCN2c1ccc(C(F)(F)F)cc1-c1cncnc1 [Example 54, 2,2,2-Trifluoroacetate]
[Q] Rank a against b by their IC50 values and give the higher one. Use the label to indicate which entry you chose.
[A] a

I = CC[C@H]1CN(c2ccc(C(F)(F)F)cc2C#N)c2ccc(S(=O)(=O)Nc3nccs3)cc2O1 (single isomer, unassigned)
II = Cc1cc(Cl)ccc1N1CCOc2cc(S(=O)(=O)Nc3nccs3)ccc21
[Q] # min-compare on IC50 between I and II Use the label to indicate which entry you chose.
[A] II

A = Cc1c(F)cccc1N1CCOc2cc(S(=O)(=O)Nc3nccs3)ccc21 [Example 78, 2,2,2-Trifluoroacetate]
B = O=S(=O)(Nc1cc(Cl)ncn1)c1ccc2c(c1)OCCN2c1ccc(C(F)(F)F)cc1Cl
C = Cc1ccc(C(C)C)c(N2CCOc3cc(S(=O)(=O)Nc4nccs4)ccc32)c1 [Example 168, 2,2,2-Trifluoroacetate]
D = N#Cc1cc(C(F)(F)F)ccc1N1C(=O)COc2cc(S(=O)(=O)Nc3nccs3)ccc21
E = COc1ncc(C(F)(F)F)cc1N1CCOc2cc(S(=O)(=O)Nc3nccs3)ccc21
[Q] Put the entries in order of IC50, starting with the largest number. Give me the labels in the order the question wants.
[A] E, B, C, A, D
(E: 11800 nM, B: 6320 nM, C: 3250 nM, A: 2220 nM, D: 1450 nM)

P = O=S(=O)(Nc1nccs1)c1ccc2c(c1)OCCN2c1ccc(OC(F)(F)C(F)F)cc1
Q = NC(=O)COc1ccccc1N1CCOc2cc(S(=O)(=O)Nc3nccs3)ccc21
[Q] # min-compare on IC50 between P and Q Use the label to indicate which entry you chose.
[A] Q
(Q: 2220 nM, P: 4720 nM)

A = COc1nc(C(F)(F)F)ccc1N1CCOc2cc(S(=O)(=O)Nc3nccs3)ccc21
B = Cc1cc(N2CCOc3cc(S(=O)(=O)Nc4nccs4)ccc32)c(C)cn1
[Q] # min-compare on IC50 between A and B Use the label to indicate which entry you chose.
[A] A

I = O=S(=O)(Nc1nccs1)c1ccc2c(c1)OCCN2c1ccc(F)c(F)c1 [Example 84, 2,2,2-Trifluoroacetate]
II = O=S(=O)(Nc1cccnn1)c1ccc2c(c1)OCCN2c1ccc(C(F)(F)F)cc1C1=CCNCC1
[Q] Rank I against II by their IC50 values and give the higher one. Use the label to indicate which entry you chose.
[A] I

a = Cc1nsc(NS(=O)(=O)c2ccc3c(c2)OCCN3c2ccc(C(F)(F)F)cc2Cl)n1
b = O=S(=O)(Nc1nccs1)c1ccc2c(c1)OCCN2c1ccccc1-c1cncnc1
c = N#Cc1cc(-c2ccccc2F)ccc1N1CCOc2cc(S(=O)(=O)Nc3nccs3)ccc21
[Q] Would you mind ranking these compounds by ascending IC50? Give me the labels in the order the question wants.
[A] c, a, b

a = O=S(=O)(Nc1cccnn1)c1ccc2c(c1)OCCN2c1ccc(C(F)(F)F)cc1Cl
b = N#Cc1ccc(N2CCOc3cc(S(=O)(=O)Nc4nccs4)ccc32)c(Cl)c1
[Q] Rank a against b by their IC50 values and give the higher one. Use the label to indicate which entry you chose.
[A] a
(a: 10700 nM, b: 976 nM)
